Target: JAK2 (Homo sapiens, UniProt O60674)
Sequence (O60674 whole entry): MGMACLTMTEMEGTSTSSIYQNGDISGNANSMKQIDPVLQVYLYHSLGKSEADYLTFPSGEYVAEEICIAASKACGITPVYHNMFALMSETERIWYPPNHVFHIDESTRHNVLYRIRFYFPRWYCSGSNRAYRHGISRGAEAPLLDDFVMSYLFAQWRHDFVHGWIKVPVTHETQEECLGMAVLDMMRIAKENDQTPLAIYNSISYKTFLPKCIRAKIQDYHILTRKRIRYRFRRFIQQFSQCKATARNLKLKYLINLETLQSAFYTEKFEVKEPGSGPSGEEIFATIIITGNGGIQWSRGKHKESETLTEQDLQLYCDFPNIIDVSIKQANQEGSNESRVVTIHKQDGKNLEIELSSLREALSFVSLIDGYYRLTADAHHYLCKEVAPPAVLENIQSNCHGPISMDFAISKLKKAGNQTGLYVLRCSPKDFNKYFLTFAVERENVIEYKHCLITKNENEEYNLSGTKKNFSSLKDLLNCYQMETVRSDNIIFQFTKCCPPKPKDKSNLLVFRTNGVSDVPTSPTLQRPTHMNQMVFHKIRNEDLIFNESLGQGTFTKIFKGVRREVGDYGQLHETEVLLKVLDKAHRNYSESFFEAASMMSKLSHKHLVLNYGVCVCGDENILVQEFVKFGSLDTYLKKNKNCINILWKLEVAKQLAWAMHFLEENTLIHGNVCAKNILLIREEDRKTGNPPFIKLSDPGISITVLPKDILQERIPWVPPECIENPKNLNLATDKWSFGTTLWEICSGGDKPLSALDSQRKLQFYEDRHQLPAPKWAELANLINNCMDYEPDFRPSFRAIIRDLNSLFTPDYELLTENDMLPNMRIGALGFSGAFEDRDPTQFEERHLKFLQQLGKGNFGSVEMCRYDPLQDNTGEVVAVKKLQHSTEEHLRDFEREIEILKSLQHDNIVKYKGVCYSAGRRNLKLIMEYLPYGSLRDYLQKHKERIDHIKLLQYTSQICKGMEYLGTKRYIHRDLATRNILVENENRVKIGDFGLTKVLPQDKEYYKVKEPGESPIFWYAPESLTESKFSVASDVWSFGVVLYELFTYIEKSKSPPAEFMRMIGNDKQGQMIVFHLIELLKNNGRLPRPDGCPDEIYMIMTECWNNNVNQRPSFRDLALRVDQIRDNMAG
Assay: JAK assay (KINASE-GLO luminescent kinase assay), JAK2
Type: biochemical
Conditions: 10 nM JAK enzyme, 800 nM Abl peptide, room temperature 75 min
Value Kind: IC50

The following molecules have reported results that may help.
>>> measured("COCc1cc(Nc2ncc(C)c(-c3cnn(CC4(CF)CC4)c3)n2)sn1")
"< 100 nM"
>>> measured("Cc1cnc(Nc2cc(COC(=O)CCN3CCN(C)CC3)ns2)nc1-c1cnn(CC2(CF)CC2)c1")
"< 10 nM"
>>> measured("COc1cnc(Nc2cc(COC(=O)c3ccccc3)ns2)nc1-c1cnn(CC2(CF)CC2)c1")
"< 10 nM"
>>> measured("CC(C)(C)OC(=O)N1CCN(c2ccc(Nc3ncc(Cl)c(-c4cnn(CCC#N)c4)n3)cc2)CC1")
"< 10 nM"
>>> measured("N#CCCn1cc(-c2nc(N(C(=O)c3ccccc3)C(=O)c3ccccc3)ncc2Cl)cn1")
"< 100000 nM"

Look up IC50 for the entries below, preserving their order.
1. Cc1cnc(Nc2ccc(C(=O)N(C)C)cc2)nc1-c1cnn(CC2(CF)CC2)c1
2. N#CCCn1cc(-c2nc(Nc3ccc(N4CCOCC4)c(F)c3)ncc2Cl)cn1

Response:
1. < 10 nM
2. < 10 nM

---

Biological target: JAK1 (Homo sapiens)
Sequence (P23458 whole entry): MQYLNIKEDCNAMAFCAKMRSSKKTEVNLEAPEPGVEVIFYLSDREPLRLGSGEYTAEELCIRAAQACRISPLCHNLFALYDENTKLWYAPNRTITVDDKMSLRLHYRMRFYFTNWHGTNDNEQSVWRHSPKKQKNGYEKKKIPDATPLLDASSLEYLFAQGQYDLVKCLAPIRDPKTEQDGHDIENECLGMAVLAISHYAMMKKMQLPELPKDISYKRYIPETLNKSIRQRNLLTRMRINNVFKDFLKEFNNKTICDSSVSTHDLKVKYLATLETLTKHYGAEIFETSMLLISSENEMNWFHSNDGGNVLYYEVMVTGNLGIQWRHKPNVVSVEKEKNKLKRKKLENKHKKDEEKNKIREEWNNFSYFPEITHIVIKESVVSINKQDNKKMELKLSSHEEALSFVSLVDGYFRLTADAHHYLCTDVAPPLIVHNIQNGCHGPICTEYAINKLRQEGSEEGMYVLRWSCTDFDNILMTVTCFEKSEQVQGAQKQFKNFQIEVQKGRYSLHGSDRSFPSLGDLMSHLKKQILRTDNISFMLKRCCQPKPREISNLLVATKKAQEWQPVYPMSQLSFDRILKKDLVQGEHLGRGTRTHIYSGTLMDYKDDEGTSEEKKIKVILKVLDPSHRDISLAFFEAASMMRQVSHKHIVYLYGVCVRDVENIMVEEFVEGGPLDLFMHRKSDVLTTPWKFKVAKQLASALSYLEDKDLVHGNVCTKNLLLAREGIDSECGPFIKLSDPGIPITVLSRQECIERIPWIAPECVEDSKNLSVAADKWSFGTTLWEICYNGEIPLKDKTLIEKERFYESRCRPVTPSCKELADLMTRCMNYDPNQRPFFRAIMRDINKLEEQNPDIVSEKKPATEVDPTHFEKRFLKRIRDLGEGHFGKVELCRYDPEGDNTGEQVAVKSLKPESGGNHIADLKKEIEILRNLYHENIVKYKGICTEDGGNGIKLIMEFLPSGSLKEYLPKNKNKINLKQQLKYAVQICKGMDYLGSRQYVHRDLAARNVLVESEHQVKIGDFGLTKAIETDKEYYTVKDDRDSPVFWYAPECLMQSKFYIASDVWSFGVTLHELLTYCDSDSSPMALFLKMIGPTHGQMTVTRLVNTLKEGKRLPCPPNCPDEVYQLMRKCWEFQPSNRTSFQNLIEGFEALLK
Assay: JAK assay (KINASE-GLO luminescent kinase assay), JAK1
Format: biochemical
Conditions: 10 nM JAK enzyme, 800 nM Abl peptide, room temperature 75 min
Would you mind telling me the reported IC50 of each entry?

The following molecules have reported results that may help.
>>> measured("Cc1cc(Nc2ncc(C)c(-c3cnn(CC4(CF)CCC4)c3)n2)ccn1")
"< 1000 nM"
>>> measured("Cc1cnc(NCCCN2CCOCC2)nc1-c1cnn(CCC#N)c1 [CC1═C(N═C(NCCCN2CCOCC2)N═C1)C3═C[N]]")
"> 50000 nM"
>>> measured("CCS(=O)(=O)N1CC(CF)(Cn2cc(-c3nc(Nc4cc(C)ns4)ncc3Cl)cn2)C1 [CC[S](═O)(═O)N1CC(CF)(C[N]2C═C]")
"< 100 nM"
>>> measured("N#CC1(Cn2cc(-c3nc(Nc4ccns4)ncc3Cl)cn2)CCC1 [ClC1═C(N═C(NC2═CC═NS2)N═C1)C3═C[N]]")
"< 100 nM"

Look up IC50 for the entries below, preserving their order.
1. N#CCCn1cc(-c2nc(Nc3ccsc3)ncc2Cl)cn1 [ClC1═C(N═C(NC2═CSC═C2)N═C1)C3═C[N]]
2. Cn1ccc(Nc2ncc(Cl)c(-c3cnn(CC4(C#N)COC4)c3)n2)cc1=O
3. Cc1cnc(Nc2ccc3c(c2)OCCN3C)nc1-c1cnn(CC2(CF)CC2)c1
4. Cc1cnc(NCCO)nc1-c1cnn(CCC#N)c1 [CC1═C(N═C(NCCO)N═C1)C2═C[N]]
5. CNC(=O)c1ccc(Nc2ncc(C)c(-c3cnn(CC4(CF)CC4)c3)n2)cc1

Response:
< 100000 nM
< 1000 nM
< 100 nM
< 100000 nM
< 10 nM

Look up IC50 for the entries below, preserving their order.
1. Cc1cnc(Nc2cc(COC(=O)CCN(C)C)ns2)nc1-c1cnn(CC2(CF)CC2)c1
2. Cc1cnc(Nc2ccc(N3CC4(COC4)C3)cc2)nc1-c1cnn(CC2(CF)CC2)c1 [CC1═C(N═C(NC2═CC(═C(C═C2)N3CC4]
3. CC(C)(C)OC(=O)N1CCC(Nc2ncc(Cl)c(-c3cnn(CCC#N)c3)n2)C(F)(F)C1 (stereo not drawn)
4. N#CCCn1cc(-c2nc(NC3CCNCC3(F)F)ncc2Cl)cn1 (stereo not drawn)

Response:
["< 100 nM", "< 100 nM", "> 50000 nM", "> 50000 nM"]

Look up IC50 for the entries below, preserving their order.
1. Cc1cnc(Nc2ccc(CNC(=O)[C@H](C)N)cc2)nc1-c1cnn(CC2(CF)CC2)c1 [C[C@H](N)C(═O)NCC1═CC═C(NC2═NC]
2. CCc1cnc(Nc2cc(C)ns2)nc1-c1cnn(CC2(Cl)CC2)c1
3. COCc1cc(Nc2ncc(C)c(-c3cnn(CC4(CF)CC4)c3)n2)sn1
4. Cc1cnc(Nc2ccccn2)nc1-c1cnn(CC2(Cl)CC2)c1 [CC1═C(N═C(NC2═CC═CC═N2)N═C1)C3═C[N]]
5. Cc1cnc(Nc2cccc3c2CN(C)C3)nc1-c1cnn(CC2(Cl)CC2)c1

Response:
< 100 nM
< 100 nM
< 1000 nM
< 100000 nM
< 100000 nM

Look up IC50 for the entries below, preserving their order.
1. CNC(=O)c1cccc(Nc2ncc(Cl)c(-c3cnn(CC4(NC)CC4)c3)n2)c1
2. Cc1cnc(Nc2cnc(N3CCOCC3)nc2)nc1-c1cnn(CC2(CF)CC2)c1
3. Cc1cnc(Nc2cccc(CNC(=O)CN(C)C)c2)nc1-c1cnn(CC2(CF)CC2)c1

Response:
< 1000 nM
< 1000 nM
< 100 nM

---

Would you mind telling me the reported IC50 of each entry?
Target: UniProtKB P23458
Experiment: JAK assay (KINASE-GLO luminescent kinase assay), JAK1
Format: biochemical
Details: 10 nM JAK enzyme, 800 nM Abl peptide, room temperature 75 min

Look up IC50 for the entries below, preserving their order.
1. Cc1cc(Nc2nc3c(c(-c4cnn(CC5(C#N)COC5)c4)n2)CN(C(=O)OC(C)(C)C)C3)sn1
2. Cc1cnc(Nc2cc(COC(=O)CCN3CCN(C)CC3)ns2)nc1-c1cnn(CC2(CF)CC2)c1
3. CS(=O)(=O)N(c1ncc(Cl)c(-c2cnn(CCC#N)c2)n1)S(C)(=O)=O [C[S](═O)(═O)N(C1═NC(═C]
4. COC(=O)c1cc(Nc2ncc(C)c(-c3cnn(CCC#N)c3)n2)ccc1N1CCOCC1 [COC(═O)C1═C(C═CC(═C1)NC2═NC(═C]
5. OCC(O)c1cccc(Nc2ncc(Cl)c(-c3cnn(CC4(CF)CC4)c3)n2)c1 (centres unmarked)
6. Cc1cnc(Nc2ccc(CNC(=O)CCN(C)C)cc2)nc1-c1cnn(CC2(CF)CC2)c1

Response:
1. > 50000 nM
2. < 100 nM
3. > 50000 nM
4. < 10 nM
5. < 10 nM
6. < 100 nM

Look up IC50 for the entries below, preserving their order.
1. N#CCCn1cc(-c2nc(Nc3ccc(CCOP(=O)(O)O)cc3)ncc2Cl)cn1 [O[P](O)(═O)OCCC1═CC═C(NC2═NC(═C]
2. Cc1cnc(NC(=O)Oc2ccc(Cl)cc2)nc1-c1cnn(CC2(CF)CC2)c1

Response:
["< 100 nM", "< 100000 nM"]

---

Molecular target: UniProt:P23458
Assay: JAK assay (KINASE-GLO luminescent kinase assay), JAK1
Assay type: biochemical
Conditions: 10 nM JAK enzyme, 800 nM Abl peptide, room temperature 75 min
Value Kind: IC50

>>> measured("COc1ccc(Nc2ncc(C)c(-c3cnn(CC4(CF)CC4)c3)n2)cn1")
"< 1000 nM"
>>> measured("Cn1cc(Nc2ncc(Cl)c(-c3cnn(CCC4CC4)c3)n2)cn1 [C[N]1C═C(NC2═NC(═C]")
"< 100 nM"
>>> measured("CC(C)(C)OC(=O)NCc1cccc(Nc2ncc(Cl)c(-c3cnn(CC4(CF)CC4)c3)n2)c1")
"157 nM"

Look up IC50 for the entries below, preserving their order.
1. Cc1cnc(Nc2ccc(N3CCN(C(=O)OC(C)(C)C)CC3)cc2)nc1-c1cnn(CC2(CF)CC2)c1
2. CC(=O)OCCc1ccc(Nc2ncc(Cl)c(-c3cnn(CCC#N)c3)n2)cc1

Response:
< 1000 nM
< 100 nM

---

Molecular target: JAK2 (Homo sapiens)
Assay: JAK assay (KINASE-GLO luminescent kinase assay), JAK2
Format: biochemical
Settings: 10 nM JAK enzyme, 800 nM Abl peptide, room temperature 75 min
Would you mind telling me the reported IC50 of each entry?

The following compounds have reported results that may help.
>>> measured("Cc1cnc(NC(=O)Nc2ccc(Cl)cc2)nc1-c1cnn(CC2(CF)CC2)c1 [CC1═C(N═C(NC(═O)NC2═CC═C]")
"> 50000 nM"
>>> measured("N#CCCn1cc(-c2nc(Nc3ccc(N4CCOCC4)cc3F)ncc2Cl)cn1 [FC1═CC(═CC═C1NC2═NC(═C]")
"< 10 nM"
>>> measured("CCc1cnc(Nc2cc(C)ns2)nc1-c1cnn(CC2(Cl)CC2)c1 [CCC1═C(N═C(NC2═CC]")
"< 10 nM"
>>> measured("Cc1cnc(Nc2cc(CN3CCN(C)CC3)ns2)nc1-c1cnn(CC2(CF)CC2)c1 [CN1CCN(CC1)CC2═NSC(═C2)NC3═NC]")
"< 10 nM"
>>> measured("CNC(=O)c1cccc(Nc2ncc(Cl)c(-c3cnn(CC4(NC)CC4)c3)n2)c1 [CNC(═O)C1═CC═CC(═C1)NC2═NC]")
"< 10 nM"
>>> measured("Clc1cnc(NC23CC(C2)C3)nc1-c1cnn(Cc2cccs2)c1 [ClC1═C(N═C(NC23CC(C2)C3)N═C1)C4═C[N]]")
"> 50000 nM"
>>> measured("Cc1cnc(Nc2ccc(S(C)(=O)=O)cc2)nc1-c1cnn(CC2(Cl)CC2)c1 [CC1═C(N═C(NC2═CC═C(C═C2)[S]]")
"< 10 nM"
>>> measured("Cc1cnc(NC2CCOCC2)nc1-c1cnn(CCC#N)c1 [CC1═C(N═C(NC2CCOCC2)N═C1)C3═C[N]]")
"< 100000 nM"
>>> measured("COc1cc(Nc2ncc(C)c(-c3cnn(CC4(CF)CC4)c3)n2)sn1 [COC1═NSC(═C1)NC2═NC(═C]")
"< 10 nM"
>>> measured("N#CCCn1cc(-c2nc(Nc3ccc(CCOP(=O)(O)O)cc3)ncc2Cl)cn1 [O[P](O)(═O)OCCC1═CC═C(NC2═NC(═C]")
"< 10 nM"

Look up IC50 for the entries below, preserving their order.
1. Cc1cnc(Nc2cc(CN(C)C)ns2)nc1-c1cnn(CC2(CF)CC2)c1 [CN(C)CC1═NSC(═C1)NC2═NC(═C]
2. Cc1cc(Nc2ncc(Cl)c(-c3cnn(CC4(N(C)C(=O)OC(C)(C)C)CC4)c3)n2)sn1 [CN(C(═O)OC(C)(C)C)C1(CC1)C[N]2C═C]
3. CC(C)(C)OC(=O)N1CCC(Nc2ncc(Cl)c(-c3cnn(CCC#N)c3)n2)C(F)(F)C1 (stereo not shown) [CC(C)(C)OC(═O)N1CCC(NC2═NC(═C]

Response:
< 10 nM
< 100 nM
> 50000 nM
